procedure-summary: Cmax in Wistar rat at 10 mg/kg, po by HPLC-MS/MS analysis
Assay type: ADME, organism-based
Set-up: route oral, dose 10 mg/kg
cond: in vivo
Each entry below carries its reported Cmax.
measure-name: Cmax (ng/mL)

>>> numeric_value("CC(=O)N1CCN(CCOCc2ccn(-c3ccc(F)c(F)c3)n2)CC1.Cl")
1180
>>> numeric_value("Cc1cc(OCCN2CCOCC2)nn1-c1ccc2ccccc2c1")
301

====

assay-target: Sigma non-opioid intracellular receptor 1 (Homo sapiens, UniProt Q99720)
Sequence (Q99720 whole entry): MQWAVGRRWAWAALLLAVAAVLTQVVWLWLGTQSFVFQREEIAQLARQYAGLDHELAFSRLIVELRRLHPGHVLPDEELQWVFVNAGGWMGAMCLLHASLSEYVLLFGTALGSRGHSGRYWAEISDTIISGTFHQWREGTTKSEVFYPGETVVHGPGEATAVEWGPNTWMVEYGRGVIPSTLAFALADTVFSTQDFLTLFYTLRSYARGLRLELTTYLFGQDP
procedure-summary: Displacement of [3H]-(+)-pentazocine from human sigma1 receptor expressed in HEK293 cell membranes incubated for 120 mins by liquid scintillation counting method
pKi: −log10 of the molar value.
Each entry below carries its reported pKi.
measure-name: pKi

>>> numeric_value("Cc1cc(COCCN2CCOCC2)nn1-c1ccc(Cl)c(Cl)c1")
7.85
>>> numeric_value("Cc1cc(CCCCN2CCOCC2)nn1-c1ccc(Cl)c(Cl)c1")
8.05
>>> numeric_value("Cc1cc(COCCN2CCNCC2)nn1-c1ccc(Cl)c(Cl)c1")
6.56

====

assay-target: Voltage-gated inwardly rectifying potassium channel KCNH2 (Homo sapiens)
Sequence (Q12809 whole entry): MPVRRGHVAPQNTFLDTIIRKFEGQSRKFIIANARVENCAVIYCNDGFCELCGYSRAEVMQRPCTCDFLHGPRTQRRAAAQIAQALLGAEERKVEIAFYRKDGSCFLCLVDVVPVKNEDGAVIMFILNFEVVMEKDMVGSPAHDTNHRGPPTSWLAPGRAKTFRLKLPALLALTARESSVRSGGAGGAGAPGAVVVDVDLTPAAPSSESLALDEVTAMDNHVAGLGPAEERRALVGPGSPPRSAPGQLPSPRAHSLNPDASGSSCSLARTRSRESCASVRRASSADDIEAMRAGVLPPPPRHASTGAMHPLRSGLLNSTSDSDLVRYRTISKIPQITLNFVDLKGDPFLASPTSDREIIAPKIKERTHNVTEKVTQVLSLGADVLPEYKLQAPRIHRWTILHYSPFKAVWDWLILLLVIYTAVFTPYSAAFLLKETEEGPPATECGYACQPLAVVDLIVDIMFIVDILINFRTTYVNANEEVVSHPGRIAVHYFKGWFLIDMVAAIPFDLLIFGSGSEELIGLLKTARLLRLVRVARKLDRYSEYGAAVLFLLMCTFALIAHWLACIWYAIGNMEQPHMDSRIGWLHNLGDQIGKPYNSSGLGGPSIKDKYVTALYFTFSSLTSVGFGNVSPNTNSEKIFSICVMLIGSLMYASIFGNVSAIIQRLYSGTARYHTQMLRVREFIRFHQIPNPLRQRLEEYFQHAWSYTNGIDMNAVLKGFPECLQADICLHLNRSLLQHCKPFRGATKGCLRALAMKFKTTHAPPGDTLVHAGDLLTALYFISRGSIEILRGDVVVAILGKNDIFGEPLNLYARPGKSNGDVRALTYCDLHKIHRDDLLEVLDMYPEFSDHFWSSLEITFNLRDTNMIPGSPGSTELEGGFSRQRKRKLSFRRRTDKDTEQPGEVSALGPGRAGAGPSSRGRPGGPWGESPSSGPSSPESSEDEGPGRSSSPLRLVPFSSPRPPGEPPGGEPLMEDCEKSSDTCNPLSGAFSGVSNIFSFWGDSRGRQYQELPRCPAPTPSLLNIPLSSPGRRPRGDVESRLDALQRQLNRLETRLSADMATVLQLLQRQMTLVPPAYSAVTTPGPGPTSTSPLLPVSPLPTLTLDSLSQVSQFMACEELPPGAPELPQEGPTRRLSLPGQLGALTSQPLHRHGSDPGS
procedure-summary: Inhibition of human ERG expressed in CHO cells by patch clamp assay
pIC50: −log10 of the molar value.
Each entry below carries its reported pIC50.
measure-name: pIC50

>>> numeric_value("Cc1cc(COCCN2CCCC2)nn1-c1ccc(Cl)c(Cl)c1")
5.29
>>> numeric_value("CC(=O)N1CCN(CCCOCc2cc(C)n(-c3ccc(Cl)c(Cl)c3)n2)CC1")
5.39

====

procedure-summary: Elimination half life in CD1 mouse at 10 mg/kg, po by HPLC-MS/MS analysis
Assay type: ADME, organism-based
cond: in vivo, read-out: beta t1/2 (converted)
measure-name: half-life (h)

>>> numeric_value("Cc1cc(OCCN2CCOCC2)nn1-c1ccc2ccccc2c1")
0.7
>>> numeric_value("CC(=O)N1CCN(CCOCc2ccn(-c3ccc(F)c(F)c3)n2)CC1.Cl")
3.4

====

procedure-summary: Thermodynamic solubility in pH 7.4 buffer
Format: physicochemical
cond: read-out: Therm_solubility
measure-name: solubility thermodynamic (µg/mL)

>>> numeric_value("Cc1cc(OCCN2CCOCC2)nn1-c1ccc2ccccc2c1")
230

====

procedure-summary: AUC (0 to infinity) in Wistar rat at 10 mg/kg, po by HPLC-MS/MS analysis
Format: ADME, organism-based
Design: route oral, time infinity, dose 10 mg/kg
cond: in vivo
Each entry below carries its reported AUC(0-inf).
measure-name: AUC(0-inf) (ng·h/mL)

>>> numeric_value("Cc1cc(OCCN2CCOCC2)nn1-c1ccc2ccccc2c1")
428
>>> numeric_value("CC(=O)N1CCN(CCOCc2ccn(-c3ccc(F)c(F)c3)n2)CC1.Cl")
2640

====

procedure-summary: Oral bioavailability in Wistar rat at 10 mg/kg by HPLC-MS/MS analysis
Format: ADME, organism-based
cond: in vivo
measure-name: bioavailability (%)

>>> numeric_value("Cc1cc(OCCN2CCOCC2)nn1-c1ccc2ccccc2c1")
15
>>> numeric_value("CC(=O)N1CCN(CCOCc2ccn(-c3ccc(F)c(F)c3)n2)CC1.Cl")
60

====

Each entry below carries its reported bioavailability.
procedure-summary: Oral bioavailability in CD1 mouse at 10 mg/kg by HPLC-MS/MS analysis
Format: ADME, organism-based
cond: in vivo
measure-name: bioavailability (%)

>>> numeric_value("CC(=O)N1CCN(CCOCc2ccn(-c3ccc(F)c(F)c3)n2)CC1.Cl")
69
>>> numeric_value("Cc1cc(OCCN2CCOCC2)nn1-c1ccc2ccccc2c1")
34

====

procedure-summary: Aqueous solubility of compound
Type: physicochemical
measure-name: solubility

>>> result("Cc1cc(OCCN2CCOCC2)nn1-c1ccc2ccccc2c1")
"200 µg/mL"

====

procedure-summary: Cmax in CD1 mouse at 10 mg/kg, po by HPLC-MS/MS analysis
Type: ADME, organism-based
Parameters: route oral, dose 10 mg/kg
cond: in vivo
measure-name: Cmax (ng/mL)

>>> numeric_value("CC(=O)N1CCN(CCOCc2ccn(-c3ccc(F)c(F)c3)n2)CC1.Cl")
771
>>> numeric_value("Cc1cc(OCCN2CCOCC2)nn1-c1ccc2ccccc2c1")
622

====

Each entry below carries its reported AUC(0-inf).
procedure-summary: AUC (0 to infinity) in CD1 mouse at 10 mg/kg, po by HPLC-MS/MS analysis
Type: ADME, organism-based
Parameters: time infinity, route oral, dose 10 mg/kg
cond: in vivo
measure-name: AUC(0-inf) (ng·h/mL)

>>> numeric_value("Cc1cc(OCCN2CCOCC2)nn1-c1ccc2ccccc2c1")
958
>>> numeric_value("CC(=O)N1CCN(CCOCc2ccn(-c3ccc(F)c(F)c3)n2)CC1.Cl")
1430

====

procedure-summary: Displacement of [3H]-DTG from sigma2 receptor in guinea pig brain membranes incubated for 120 mins by liquid scintillation counting method
Type: cell membranes, Cavia porcellus, Cell membrane
Strictly below 100 nM in Ki: 1 (yes). Otherwise: 0 (no).

>>> class_name("Cc1cc(OCCN2CCOCC2)nn1-c1ccc2ccccc2c1")
"0 (no)"
>>> class_name("Cc1cc(COCCN2CCOCC2)nn1-c1ccc(Cl)c(Cl)c1")
"0 (no)"
>>> class_name("CC(C)=CCN1CC[C@]2(C)c3cc(O)ccc3C[C@H]1[C@H]2C [(+)-PENTAZOCINE]")
"0 (no)"
>>> class_name("Clc1ccc(-n2ccc(COCCN3CCOCC3)n2)cc1Cl")
"0 (no)"
>>> class_name("Cc1ccccc1NC(=N)Nc1ccccc1C")
"1 (yes)"
>>> class_name("O=C(CCCN1CCC(O)(c2ccc(Cl)cc2)CC1)c1ccc(F)cc1")
"1 (yes)"
>>> class_name("Cc1cc(COCCN2CCOCC2)nn1-c1ccc2ccccc2c1")
"0 (no)"

====

assay-target: UniProt:Q12809
procedure-summary: Inhibition of human ERG expressed in CHO cells by patch clamp assay
pIC50: −log10 of the molar value.
Each entry below carries its reported pIC50.
measure-name: pIC50

>>> result("CC(=O)N1CCN(CCOCc2cc(C)n(-c3ccc(F)c(F)c3)n2)CC1")
"< 5.00"
>>> result("CC(=O)N1CCN(CCOCc2ccn(-c3ccc(F)c(F)c3)n2)CC1.Cl")
"< 5.00"
>>> result("CC(=O)N1CCN(CCOCc2cc(C)n(-c3ccc(Cl)c(Cl)c3)n2)CC1")
"< 5.00"
